// reported growth at 10 µM per item
test system: M14; assay: Cytotoxicity against human M14 cells assessed as cell growth at 10 uM; type: functional; conditions: Homo sapiens, M14; read-out: Activity
measure: growth at 10 µM (%)

- Cc1cc(-c2cccnc2)nc(NC(=O)c2cccc(C(F)(F)F)c2)n1: 109
- CC(=O)Nc1cccc(-c2ccc(-c3ccnc(NC(=O)Nc4cc(C(F)(F)F)cc(C(F)(F)F)c4)n3)cn2)c1.Cl: 46.5
- CC(=O)c1ccccc1-c1ccc(-c2ccnc(NC(=O)Nc3cc(C(F)(F)F)cc(C(F)(F)F)c3)n2)cn1.Cl: 98.2
- FC(F)(F)c1cc(Nc2nccc(-c3ccc(-c4ccccc4)nc3)n2)cc(C(F)(F)F)c1: 81.4
- CC(=O)c1ccc(-c2ccc(-c3ccnc(Nc4cc(C(F)(F)F)cc(C(F)(F)F)c4)n3)cn2)cc1: 109
